Overview of recorded inhibition in vivo at 10 mg/kg for various compounds
- System: Nematospiroides dubius
- assay comment: Anthelmintic efficacy against N. dubius in mice, single oral dose
- Assay type: in vivo, Nematospiroides dubius (in albino female mice)
- condition parameters: Heligmosomoides polygyrus, po, single oral dose 10 mg./Kg., molar-adjusted; read-out: Percent Nematospiroides Activity
Structures can show the parent of a compound that is named as a salt.
Your answer should be a plain number; it is taken to be in %.

>  <compound>
O=C(Nc1cccc(C2CN3CCSC3=N2)c1)c1ccc([N+](=O)[O-])cc1 (stereo not drawn) [Table XII b1857]

>  <units symbol>
%

>  <inhibition in vivo at 10 mg/kg>
100

$$$$

Form: compound = O=C(Nc1cccc(C2CN3C=CSC3=N2)c1)c1ccccc1 (stereo not drawn) [Table XIV b1987] ; inhibition in vivo at 10 mg/kg = 100

Looking up CC(C)C(=O)Nc1cccc(C2CN3C=CSC3=N2)c1 (stereo not drawn) [5,6-dihydro HN-CO-CH(CH3)2] , I found its inhibition in vivo at 10 mg/kg recorded as 68

Entry CC(C)Nc1cccc(C2CN3CCSC3=N2)c1 (stereo not drawn) [m-NH-CH(CH3)2 dl] , inhibition in vivo at 10 mg/kg reported as 100

Summary for this compound, O=CNc1cccc(C2CN3CCSC3=N2)c1 (racemic) [m-NH--HCO dl] : inhibition in vivo at 10 mg/kg is 97

The compound listed as O=C(Cc1ccccc1)Nc1cccc(C2CN3CCSC3=N2)c1 (stereo not drawn) [Table XII b1825] shows inhibition in vivo at 10 mg/kg equal to 95

Value of measured inhibition in vivo at 10 mg/kg for the entry O=C(Nc1cccc(C2CN3CCSC3=N2)c1)c1ccco1 (stereo not drawn) [Table XII b1864] : 99

response.value for CCC(=O)Nc1cccc(C2CN3CCSC3=N2)c1 (racemic) [m-NH--CO--C2 H5 dl] (field: inhibition in vivo at 10 mg/kg) = 100

inhibition in vivo at 10 mg/kg measured on CC(C)C(=O)Nc1cccc(C2CN3CCSC3=N2)c1.Cl (stereo not drawn) [m-NH--CO--CH(CH3)2 dl, hydrochloride] = 100

// Cl.Cl.Nc1cccc(C2CN3CCSC3=N2)c1 (racemic) [dl-m-aminotetramisole, Dihydrochloride] : inhibition in vivo at 10 mg/kg value = 100

Reported inhibition in vivo at 10 mg/kg ( CC(CO)Nc1cccc(C2CN3CCSC3=N2)c1 (stereo not drawn) [HN--CH(CH3)CH2 OH] ) = 1

What the record says about CC(C)(C)CC(=O)Nc1cccc(C2CN3CCSC3=N2)c1 (stereo not drawn) [HNCOCH2 C(CH3)2] : inhibition in vivo at 10 mg/kg is 98

// inhibition in vivo at 10 mg/kg lookup, compound = CCC(CC)C(=O)Nc1cccc(C2CN3CCSC3=N2)c1 (racemic) [m-NH-CO-CH(C2 H5)2 dl] , result: 85

Field inhibition in vivo at 10 mg/kg (entry COC(=O)Nc1cccc(C2CN3CCSC3=N2)c1 (stereo not drawn) [m-NH-CO--OCH3 l, hydrochloride] ) reads 61

Consider Cl.Cl.Nc1cccc(C2CN3C=CSC3=N2)c1 (stereo not drawn) [5,6-dihydro m-NH2 dl, dihydrochloride] . Its measured inhibition in vivo at 10 mg/kg is 100

compound COC(=O)Nc1cccc(C2CN3CCSC3=N2)c1 (racemic) [m-NH-CO-OCH3 dl, hydrochloride] , inhibition in vivo at 10 mg/kg observed: 25

Entry O=CNc1cccc(C2CN3C=CSC3=N2)c1 (stereo not drawn) [5,6-dihydro HNCHO] — recorded inhibition in vivo at 10 mg/kg = 100

Item: CNc1cccc(C2CN3CCSC3=N2)c1.Cl.Cl (stereo not drawn) [m-NH--CH3 dl, Dihydrochloride] | inhibition in vivo at 10 mg/kg: 66
